Every entry's value here was drawn from ChEMBL document CHEMBL3351576.

# System: HeLa
# ASSAY_EXPLANATION: Cytotoxicity against human HeLa cells assessed as cell viability at 100 uM by SRB assay
# Format: functional
# CONDITION_SUMMARY: read-out: Activity
READOUT_TYPE: viability at 100 µM (%)
Your answer should be a plain number; it is taken to be in %.

Challenge: Could you share which viability at 100 µM value was measured for C[C@H]1[C@H]2OC(=O)[C@@H]1[C@]1(C)C(=O)C=C3[C@@](C)(O)C[C@H](O)[C@@H](O)[C@]3(C)C1[C@H]2O (stereo not given in full) ?
Response given: 102

Challenge: # lookup: viability at 100 µM of `CC1=CC(=O)[C@@H](O)[C@]2(C)[C@H]3[C@@H](O)[C@H](O)[C@H](C)[C@]4(O)[C@@H](O)C(=O)O[C@H](C[C@@]12O)[C@]34C`
Response given: 100

Challenge: So what's the measured viability at 100 µM for this one? `CC1=CC(=O)[C@@H](O)[C@]2(C)[C@H]3[C@]4(O)OC[C@@]35[C@@H](C[C@@H]12)OC(=O)[C@H](O)[C@@]5(O)[C@]1(CO1)[C@H]4O`
Response given: 61.7

Challenge: # lookup: viability at 100 µM of C=C1[C@@H](O)[C@@]2(O)OC[C@]34[C@H]2[C@@]2(C)[C@H](O)C(=O)C=C(C)[C@@H]2C[C@H]3OC(=O)[C@H](O)[C@@]14O [EURYCOMANONE]
Response given: 47

Challenge: Can you share its viability at 100 µM? I mean this compound: CC1=CC(=O)[C@@H](O)[C@@]2(C)[C@H]1CC(=O)[C@@]1(C)[C@H]3C(=O)O[C@H]([C@@H]3C)[C@H](O)[C@@H]12 [EURYCOMALACTONE]
Response given: 44.5

----------
# Test system: HeLa
# ASSAY_EXPLANATION: Cytotoxicity against human HeLa cells by SRB assay
# Type: functional, cell-based
READOUT_TYPE: IC50 (µM)
API: value field is a number in µM; no unit string.

Challenge: Missing value: IC50, HeLa, entry `CC1=CC(=O)[C@@H](O)[C@]2(C)[C@H]3[C@@H](O)[C@H](O)[C@H](C)[C@]4(O)[C@@H](O)C(=O)O[C@H](C[C@@H]12)[C@]34C` . Fill in?
Response given: 48.2

----------
Give viability at 10 µM for every item shown.
# Tested on: A549
# ASSAY_EXPLANATION: Cytotoxicity against human A549 cells assessed as cell viability at 10 uM by SRB assay
# Type: functional
# CONDITION_SUMMARY: read-out: Activity
Hi! Could you send only the number? It should be in %, unit omitted.

Challenge: Param readout= viability at 10 µM; system= A549; entry= `CC1=CC(=O)O[C@H]1[C@@]1(C)C[C@H]2OC(=O)[C@H](O)[C@@]3(O)[C@@H](C)[C@@H](O)[C@H](O)[C@H]1[C@@]23C` ; returns value.
Response given: 102

Challenge: Find viability at 10 µM (A549) for the entry `CC1=CC(=O)O[C@H]1[C@@]1(C)C[C@H]2OC(=O)[C@H](O)[C@@]3(O)[C@@H](C)C(=O)C(O)=C1[C@@]23CO`
Response given: 104

Challenge: Item: `CC1=CC(=O)O[C@H]1[C@@]1(C)C[C@H]2OC(=O)[C@H](O)[C@@]3(O)[C@H](C)C(=O)C(O)=C1[C@@]23CO` Test system: A549 Read-out: viability at 10 µM Value: ?
Response given: 104

Challenge: Give viability at 10 µM (A549) of the following compound: `CC1=CC(=O)[C@@H](O)[C@]2(C)[C@H]3[C@]4(O)OC[C@@]35[C@@H](C[C@@H]12)OC(=O)[C@H](O)[C@@]5(O)[C@H](C)[C@H]4O`
Response given: 101

Challenge: # get_value(readout= viability at 10 µM, system= A549) for `C=C1C(=O)C(O)=C2[C@@](C)([C@@H]3OC(=O)C=C3C)C[C@H]3OC(=O)[C@H](O)[C@]1(O)[C@@]23CO`
Response given: 102

Challenge: Can you look up viability at 10 µM on A549 for `CC1=CC(=O)[C@@H](O)[C@]2(C)[C@H]3[C@]4(O)OC[C@@]35[C@@H](C[C@@H]12)OC(=O)[C@H](O)[C@@]5(O)[C@]1(CO1)[C@H]4O` ?
Response given: 102
